tested on: myeloid leukemia patient primary cells Pat.2; assay: cell viability (% survival relative to DMSO control); higher = less cytotoxic; conditions: 10000 nM; 72 h
measurement.label: cell viability (%)
Reply numerically in %, unit not repeated.

## Task Specify measured cell viability for O=C1C(SCCO)=C(SCCO)C(=O)c2ccccc21 .
## Result 0.14

## Task Specify measured cell viability for O=C(O)CC[N+](=O)[O-] .
## Result 83.7

## Task Specify measured cell viability for Cn1cc(-c2ccncc2)c(-c2ccc(OCc3ccc4ccccc4n3)cc2)n1 .
## Result 80.2

## Task Specify measured cell viability for Cc1cc2c(C(C)C)c(O)c(O)c(C=O)c2c(O)c1-c1c(C)cc2c(C(C)C)c(O)c(O)c(C=O)c2c1O .
## Result 34.6
